Test system: EBOV minigenome
Assay: microbe, parasite or virus in culture
Type: cell-based, Ebola virus
Details: Zaire ebolavirus, read-out: EBOV EC50
So basically, if EC50 comes in under 40 µM it's Satisfied, and if it's 40 µM or more it's Not satisfied.

Ask: # TODO verify EC50 < 40 µM strictly for this compound: c1cncc(CNc2c3ccccc3nc3ccccc23)c1
Reply: Satisfied

Ask: is_below(EC50, 40 µM) for CCOC(=O)c1ccc2nc(C)cc(Nc3ccc(C)cc3C)c2c1 ?
Reply: Not satisfied

Ask: For COc1ccc2nc(C)cc(Nc3ccc(I)cc3)c2c1 , is the recorded EC50 below the cut-off of 40 µM?
Reply: Satisfied

Ask: Quick check: does CCOC(=O)c1cnc2c(C)cccc2c1NCc1ccco1 have EC50 under 40 µM?
Reply: Satisfied

Ask: I'd appreciate it if you could check whether COc1cccc2c(Nc3cccc([N+](=O)[O-])c3)cc(C)nc12 has EC50 smaller than 40 µM.
Reply: Not satisfied

Ask: Strictly below 40 µM: is that where EC50 of Cc1ccc2nc3c(c(Nc4cccc(C(F)(F)F)c4)c2c1)CCC3 sits?
Reply: Not satisfied

Ask: Regarding Cc1cc(C)c2nc(C)cc(NCc3ccco3)c2c1 , kindly confirm whether its EC50 is beneath 40 µM.
Reply: Not satisfied

Ask: Please determine if Cc1ccc2nc3c(c(Nc4ccccc4)c2c1)CCC3 is below 40 µM in terms of EC50.
Reply: Not satisfied

Ask: Given COc1ccccc1Nc1cc(C)nc2c(C)c(C)cc(N)c12 , is recorded EC50 strictly lower than 40 µM?
Reply: Not satisfied

Ask: Find out if reported EC50 for CCOc1ccc2nc(C)cc(Nc3cc(Cl)ccc3OC)c2c1 is less than 40 µM
Reply: Satisfied

Ask: Does the reported EC50 of c1ccc2cc(Nc3c4ccccc4nc4ccccc34)ccc2c1 stay below 40 µM?
Reply: Satisfied

Ask: Input CCOC(=O)c1cnc2c(C(F)(F)F)cccc2c1Nc1ccc(S(=O)(=O)Nc2nc(C)cc(C)n2)cc1 ; condition: EC50 strictly below 40 µM. Does it hold?
Reply: Satisfied

Ask: Decide: EC50 of CCOC(=O)c1cnc2c(C)cc(C)cc2c1NCCCN(C)C strictly below 40 µM?
Reply: Satisfied

Ask: Decide: EC50 of Cc1ccc(Nc2cc(C)nc3c2ccc2ccccc23)cc1 strictly below 40 µM?
Reply: Not satisfied

Ask: Field: below-cutoff. Rule: recorded EC50 strictly less than 40 µM. Subject: CCOC(=O)c1cnc2ccc(OC)cc2c1NCc1ccco1
Reply: Satisfied

Ask: For COC(=O)c1ccc(Nc2cc(C)nc3c(C)cccc23)cc1 , is the recorded EC50 below the cut-off of 40 µM?
Reply: Not satisfied

Ask: is_below(EC50, 40 µM) for CCOc1ccc2nc(C)cc(Nc3ccc(N(C)C)cc3)c2c1 ?
Reply: Not satisfied

Ask: A record lists Cc1cc(Nc2cccc(C(F)(F)F)c2)c2cc(Cl)ccc2n1 . Is its EC50 below 40 µM?
Reply: Not satisfied

Ask: EC50 strictly < 40 µM for this compound? CCOc1ccc2nc(C)cc(Nc3ccc(Br)cc3)c2c1
Reply: Not satisfied

Ask: I wonder whether Cc1ccc2nc(C)cc(Nc3ccccc3)c2c1 has EC50 below 40 µM. Can you tell?
Reply: Not satisfied
